Source listed as paper PMC9482650.

target: NHERF4_2, Q86UT5; experiment: holdup assay; parameters: key: below the threshold = too weak to quantify, mostly under pKd 3.1 to 4; conditions: plain residues with an end cap or a label only (N-terminal biotin on a linker: ado-ado)
Sequence (Q86UT5 220-308): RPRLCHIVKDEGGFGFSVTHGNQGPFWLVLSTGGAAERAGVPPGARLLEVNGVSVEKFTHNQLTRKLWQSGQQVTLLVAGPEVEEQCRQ
quantity: pKd

Please review the following examples before continuing.
HYPASPDSWV [CTNND2, Q9UQB3] : 3.55
FHSIKQSTAV [CRHR1, P34998] : below the threshold
KLQNPNQSVV [TYRP1, P17643] : below the threshold
IKLETKKTKL [SLC15A2, Q16348] : 3.63

Provide the reported pKd of each entry below, same order.
1. LVEEEEPMNL [HDAC7, Q8WUI4]
2. DAAHHDESNC [FMNL3, Q8IVF7]
3. LPPPESESKV [KCNJ9, Q92806]

below the threshold
below the threshold
below the threshold

Provide the reported pKd of each entry below, same order.
1. LLQEEWETVM [PTH1R, Q03431]
2. RDYTQSSSSL [GRM5, P41594]
3. SKQFDKNAYV [CLDN10, P78369]
4. QKASRNESTF [POLR1D, P0DPB6]
5. EFKQTSSFLV [JAM1, Q9Y624]
6. HLSTRQGTCV [ATRNL1, Q5VV63]
7. MQILSKPEFI [NPSR1, Q6W5P4]

below the threshold
below the threshold
below the threshold
below the threshold
below the threshold
below the threshold
below the threshold

Provide the reported pKd of each entry below, same order.
1. QRYPGNQTTC [CCL24, O00175]
2. EPAKETTTNV [SLC2A3, P11169]
3. HDDYFYHDEL [RCN2, Q14257]

1. below the threshold
2. 3.56
3. below the threshold

Value lookup for pKd; key = FLVTEFNVML [DFNB31, Q9P202] below the threshold
